The following compounds are shown together with reported growth values.
System: 786-0 renal
Assay: NCI-60 one-dose screen, 48 h (100 = growth as untreated, 0 = no growth, -100 = all killed)
Conditions: 10 µM unless noted
Description: Cells are grown in 96 well plates and exposed to the test compound for 48 hours. Compounds are tested at a single concentration, which is 10^-5 M for most compounds. The reported endpoint is percent growth (GI% or GIPRCNT), where numbers from 0 - 100% represent growth inhibition, and numbers from -100% - 0 represent cell death. For example, a value of 40 represents 60% growth inhibition. A value of 0 means no net growth occurred over the course of the experiment. […]
Compounds without any hit were thinned out: in the full panel of roughly 83,000, 20% have a hit.
Numeric only. Scale: %

> print(dat)
                                   compound  numeric.value
1                      Cc1nc(N)[nH]c(=O)c1C            103
2  CCC1=C(c2ccc(OC)cc2)C(C)(C)Oc2c1ccc(O)c2CN1CCCC1           34.2
3        CN(C)c1ccc(/C=C\c2ccnc3ccccc23)cc1           65.1
4  COc1cc2c(cc1OCCCOc1ccc(-c3cc4ccccc4c4ccccc34)cc1)N=C[C@@H]1CCCN1C2=O          -79.9
5  O=C(C(Br)Br)C(Br)C(Br)c1ccccc1 (configuration not stated)            107
6  O=[N+]([O-])c1ccc(N/N=C/c2c(O)ccc3ccccc23)nc1           59.2

Now take the following compound into account.
Problem: Return reported growth; argument: Cc1cc(C(C)(C)c2cc(C)c(O)c(CN(C)C)c2)cc(CN(C)C)c1O
Solution: 73.1

====

Test system: SN12C renal
Test: NCI-60 one-dose screen, 48 h (100 = growth as untreated, 0 = no growth, -100 = all killed)
Details: 10 µM unless noted
About 83,000 compounds went through this panel and 20% of them were active in at least one assay; those are over-represented in the sample as a whole.
ENDPOINT_NAME: growth (%)
Respond with the bare value in %.

# example entries with known answers
> print(dat)
                              sample.smiles  endpoint.name  unit.info  numeric.value
1  COc1ccc(-c2cc(C(=O)Nc3nc4cc(C)c(C)cc4s3)nc3cc(-c4ccccc4)nn23)cc1OC         growth          %            107
2             CCCCCCOc1ccc(/C=N/NC(N)=S)cc1         growth          %           22.2
3  O=[N+]([O-])c1cnc(Sc2ccncn2)c([N+](=O)[O-])c1         growth          %           96.9
4          Nc1ccccc1-c1ccc([N+](=O)[O-])cc1         growth          %           60.3
5  O=C(CCc1nnc2sc(-c3ccc(Cl)cc3Cl)nn12)c1nc2ccccc2[nH]1         growth          %          -36.7

Problem: May I ask what growth has been recorded for c1ccc(Nc2nnc(-c3cc(-c4cccnc4)n(-c4ccccc4)n3)s2)cc1 ?
Solution: 87.7

Problem: Give its growth value. Item: O=C1c2nsnc2C(=O)c2c(F)c(F)c(F)c(F)c21
Solution: -94.8

Problem: Which growth value is on record for O=C(/C(=C/c1ccc([N+](=O)[O-])cc1)c1ccccc1)c1ccccc1 ?
Solution: 35.1

Problem: Would you kindly share the measured growth for COc1ccc(C(=O)/C=C/c2c(Cl)nc3c(c(C)nn3-c3ccccc3)c2-c2ccc(Br)cc2)cc1 ?
Solution: 99.4
